Source of measurements: patent US9469615B2

# Lookup of reported Ki keyed by entry
Target: hCRTH2 (Homo sapiens)
Construct: expressed in transfected cells; host or cells: HEK (human embryonic kidney) cells expressing hCRTH2; membrane preparation
Sequence (Q9Y5Y4 whole entry): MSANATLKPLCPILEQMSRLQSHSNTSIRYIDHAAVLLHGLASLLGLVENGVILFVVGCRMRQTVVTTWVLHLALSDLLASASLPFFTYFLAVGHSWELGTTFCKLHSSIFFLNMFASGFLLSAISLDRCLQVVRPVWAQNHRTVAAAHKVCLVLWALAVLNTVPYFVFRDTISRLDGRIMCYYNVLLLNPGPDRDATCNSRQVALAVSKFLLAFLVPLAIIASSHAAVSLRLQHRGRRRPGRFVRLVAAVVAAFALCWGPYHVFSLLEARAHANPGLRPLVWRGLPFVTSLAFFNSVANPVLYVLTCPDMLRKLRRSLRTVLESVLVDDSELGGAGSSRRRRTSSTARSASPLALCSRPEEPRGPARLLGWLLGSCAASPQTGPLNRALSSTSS
Test: Radioligand binding assay ([3H]PGD2 competition, HEK-hCRTH2 membranes)
Details: [3H]PGD2 binding, rated A-E (Table A)
Method: Biological Assays Radioligand Binding Assay. Radioligand binding assays were performed at room temperature in 50 mM Tris-HCl pH 7.4, 1 mM EDTA containing 2 mM MnCl2 and 3.0 nM [^3H]PGD2 (New England Nuclear, Boston, Mass.) (171 Ci mmol^−1), in a final volume of 0.2 mL. […] Total and non-specific binding were determined in the absence and the presence of 10 μM PGD2, respectively. […] The radioactivity was measured with Betaplate model 1205 (Wallac).

Use these answered entries as a reference point.
O=C(N[C@@H]1CCCc2ccccc21)c1ccc2nc(-c3ccccc3)c(CCCC(F)C(=O)O)nc2c1 (single isomer, unassigned) [38B]; 20.1 to 200 nM
O=C(O)CCCCc1nc2cc(C(=O)N[C@H]3CCCc4cc(Cl)ccc43)ccc2nc1-c1ccc(Cl)cc1; 2.1 to 20 nM
O=C(O)Cc1cccc(CCc2nc3cc(C(=O)NCc4ccc(F)cc4)ccc3nc2-c2ccc(F)cc2)c1; 2.1 to 20 nM
O=C(O)CCCCc1nc2cc(C(=O)N3CCC(c4ccccc4)CC3)ccc2nc1-c1ccc(C(F)(F)F)cc1; 0.1 to 2 nM
C[C@@H](c1ccc(Cl)cc1)N(C)C(=O)c1ccc2nc(-c3ccc(F)cc3)c(CCCCC(=O)O)nc2c1; 2.1 to 20 nM

# input Fill blank: measured Ki of the compound CC(C)NC(=O)c1ccc2nc(-c3ccc(F)cc3)c(CCCCC(=O)O)nc2c1 is ____.
# output 2.1 to 20 nM

# input One more compound: CC(CCCc1nc2cc(C(=O)NCc3ccc(C#N)cc3)ccc2nc1-c1ccc(Cl)cc1)C(=O)O (stereo not shown)
# output 2.1 to 20 nM
